Tested on: HeLa Kyoto
Assay: solubility change mitosis vs G1/S (difference of NP-40 vs SDS log2 ratios) (log2 ratio difference); higher = more soluble in mitosis
assay.metric: solubility change mitosis (log2)
Answer with the value's number alone.

# input Query: solubility change mitosis (log2); subject: MIPRKRYGSKNTDQGVYLGLSKTQVLSPATAGSSSSDIAPLPPPVTLVPPPPDTMSCRDRTQEFLSACKSLQTRQNGIQTNKPALRAVRQRSEFTLMAKRIGKDLSNTFAKLEKLTILAKRKSLFDDKAVEIEELTYIIKQDINSLNKQIAQLQDFVRAKGSQSGRHLQTHSNTIVVSLQSKLASMSNDFKSVLEVRTENLKQQRSRREQFSRAPVSALPLAPNHLGGGAVVLGAESHASKDVAIDMMDSRTSQQLQLIDEQDSYIQSRADTMQNIESTIVELGSIFQQLAHMVKEQEETIQRIDENVLGAQLDVEAAHSEILKYFQSVTSNRWLMVKIFLILIVFFIIFVVFLA [STX5]
# output -0.103

====

// melting temperature lookup, one value per entry
Test system: HeLa Kyoto
Experiment: melting temperature (median over replicates), in situ; higher = more thermally stable
Conditions: cell cycle stage: mitosis
Record the value in °C, omitting the unit from your answer.

See these solved cases before continuing.
MPGGLLLGDVAPNFEANTTVGRIRFHDFLGDSWGILFSHPRDFTPVCTTELGRAAKLAPEFAKRNVKLIALSIDSVEDHLAWSKDINAYNCEEPTEKLPFPIIDDRNRELAILLGMLDPAEKDEKGMPVTARVVFVFGPDKKLKLSILYPATTGRNFDEILRVVISLQLTAEKRVATPVDWKDGDSVMVLPTIPEEEAKKLFPKGVFTKELPSGKKYLRYTPQP [PRDX6] :: 54.5
MIPRKRYGSKNTDQGVYLGLSKTQVLSPATAGSSSSDIAPLPPPVTLVPPPPDTMSCRDRTQEFLSACKSLQTRQNGIQTNKPALRAVRQRSEFTLMAKRIGKDLSNTFAKLEKLTILAKRKSLFDDKAVEIEELTYIIKQDINSLNKQIAQLQDFVRAKGSQSGRHLQTHSNTIVVSLQSKLASMSNDFKSVLEVRTENLKQQRSRREQFSRAPVSALPLAPNHLGGGAVVLGAESHASKDVAIDMMDSRTSQQLQLIDEQDSYIQSRADTMQNIESTIVELGSIFQQLAHMVKEQEETIQRIDENVLGAQLDVEAAHSEILKYFQSVTSNRWLMVKIFLILIVFFIIFVVFLA [STX5] :: 49.9

# input Given the sequence MNQENPPPYPGPGPTAPYPPYPPQPMGPGPMGGPYPPPQGYPYQGYPQYGWQGGPQEPPKTTVYVVEDQRRDELGPSTCLTACWTALCCCCLWDMLT [CYSTM1] , what is its reported melting temperature?
# output 52.8

# input What value of melting temperature has been recorded for this entry: MVLIKEFRVVLPCSVQEYQVGQLYSVAEASKNETGGGEGIEVLKNEPYEKDGEKGQYTHKIYHLKSKVPAFVRMIAPEGSLVFHEKAWNAYPYCRTIVTNEYMKDDFFIKIETWHKPDLGTLENVHGLDPNTWKTVEIVHIDIADRSQVEPADYKADEDPALFQSVKTKRGPLGPNWKKELANSPDCPQMCAYKLVTIKFKWWGLQSKVENFIQKQEKRIFTNFHRQLFCWIDKWIDLTMEDIRRMEDETQKELETMRKRGSVRGTSAADV [PITPNB]
# output 53.4

# input For the sequence shown here, MAAQCVRLARRSLPALALSLRPSPRLLCTATKQKNSGQNLEEDMGQSEQKADPPATEKTLLEEKVKLEEQLKETVEKYKRALADTENLRQRSQKLVEEAKLYGIQAFCKDLLEVADVLEKATQCVPKEEIKDDNPHLKNLYEGLVMTEVQIQKVFTKHGLLKLNPVGAKFDPYEHEALFHTPVEGKEPGTVALVSKVGYKLHGRTLRPALVGVVKEA [GRPEL1] , give the reported melting temperature.
# output 51

# input # get_value(readout='melting temperature', item= MASGVQVADEVCRIFYDMKVRKCSTPEEIKKRKKAVIFCLSADKKCIIVEEGKEILVGDVGVTITDPFKHFVGMLPEKDCRYALYDASFETKESRKEELMFFLWAPELAPLKSKMIYASSKDAIKKKFQGIKHECQANGPEDLNRACIAEKLGGSLIVAFEGCPV [DSTN] )
# output 53.3
